test system: U2OS; experiment: Multiplex assay against U2OS; type: toxicity, cell-based; settings: human, 12 h, 1 µM, compound concentration 1 uM, replicate 2
Quick rule for you: Population Normal (%) under 90% gets True, anything else gets False.

INSERT INTO results (compound, class_label) VALUES
  ('CCOc1ccn(-c2ccc(F)cc2)c(=O)c1C(=O)Nc1ccc(Oc2ccnc(N)c2Cl)c(F)c1', 'True'),
  ('C[C@@H](Oc1cc(-n2cnc3ccc(CN4CCN(C)CC4)cc32)sc1C(N)=O)c1ccccc1C(F)(F)F', 'False'),
  ('Oc1cccc(-c2nc(N3CCOCC3)c3oc4ncccc4c3n2)c1', 'False'),
  ('Cl.Cn1c2c(c3ccc(Cl)c(Cl)c31)C(C#N)C1(CCNCC1)NC2=O (stereo not drawn)', 'True'),
  ('CN1C(=O)[C@@H](NC(=O)c2cc3ccccc3[nH]2)N=C(c2ccccc2)c2ccccc21 [DEVAZEPIDE]', 'False'),
  ('CN(c1cc(C(F)(F)F)nc(OCCC(=O)O)n1)c1cccc2c1CCC2', 'True');

###

Reported Total Cell Count values are given for each entry in this list.
system: U2OS; experiment: Multiplex assay against U2OS; assay type: toxicity, cell-based; conditions: human, 24 h, 10 µM, compound concentration 10 uM, replicate 1
MEASURE NAME: Total Cell Count

INSERT INTO assay_data (molecule, measure_name, number) VALUES
  ('C=CC(=O)Nc1cc(-n2c(=O)ccc3cnc4ccc(-c5ccc(NS(C)(=O)=O)cc5)cc4c32)ccc1C', 'Total Cell Count', 202),
  ('CC(/C=C1\SC(=S)N(CCCC(=O)Nc2ccc(C(=O)O)c(O)c2)C1=O)=C\c1ccccc1', 'Total Cell Count', 151),
  ('Cc1c(Nc2ccc(S(=O)(=O)N3CCN(C)CC3)cc2F)nc2ccc(Nc3cnn(C4CC4)c3)cn2c1=O', 'Total Cell Count', 480),
  ('Cc1ccc(NC(=O)Nc2cc(C(F)(F)F)ccc2F)cc1Nc1ccc2c(c1)NC(=O)/C2=C\c1ccc[nH]1', 'Total Cell Count', 302),
  ('CC(C)c1cc(Nc2nc(N3CCC[C@H](N)C3)ncc2C(N)=O)cc(C(C)C)n1', 'Total Cell Count', 167),
  ('CCOc1ccn(-c2ccc(F)cc2)c(=O)c1C(=O)Nc1ccc(Oc2ccnc(N)c2Cl)c(F)c1 [BMS-777607]', 'Total Cell Count', 263),
  ('CC[C@H](Nc1ncnc2[nH]cnc12)c1nc2cccc(F)c2c(=O)n1-c1ccccc1 [IDELALISIB]', 'Total Cell Count', 244),
  ('CCCc1cc(C)[nH]c(=O)c1CNC(=O)c1cc(-c2ccc(N3CCN(C(C)C)CC3)nc2)cc2c1cnn2C(C)C', 'Total Cell Count', 75),
  ('CCCCN(CC)c1nc(C)nc2c1c(C)cn2-c1c(C)cc(C)cc1C.Cl', 'Total Cell Count', 152),
  ('Oc1cccc(-c2nc(N3CCOCC3)c3oc4ncccc4c3n2)c1 [PI-103]', 'Total Cell Count', 196),
  ('N#CCNC(=O)c1ccc(-c2ccnc(Nc3ccc(N4CCOCC4)cc3)n2)cc1 [MOMELOTINIB]', 'Total Cell Count', 194),
  ('CCOC(=O)CCNc1cc(N2CCc3ccccc3CC2)nc(-c2ccccn2)n1', 'Total Cell Count', 181),
  ('CN1C(=O)[C@@H](NC(=O)c2cc3ccccc3[nH]2)N=C(c2ccccc2)c2ccccc21 [DEVAZEPIDE]', 'Total Cell Count', 123),
  ('CN(c1cc(C(F)(F)F)nc(OCCC(=O)O)n1)c1cccc2c1CCC2', 'Total Cell Count', 176),
  ('Cl.NC[C@@H]1O[C@H](C23CC4CC(CC(C4)C2)C3)Cc2c1ccc(O)c2O', 'Total Cell Count', 161),
  ('CC[C@@]1(O)C(=O)OCc2c1cc1n(c2=O)Cc2cc3ccccc3nc2-1 [CAMPTOTHECIN]', 'Total Cell Count', 157),
  ('C[C@@H](Oc1cc(-n2cnc3ccc(CN4CCN(C)CC4)cc32)sc1C(N)=O)c1ccccc1C(F)(F)F [GSK-461364]', 'Total Cell Count', 138),
  ('CC(C)C[C@H](NC(=O)[C@H](Cc1ccccc1)NC(=O)CNC(=O)CNC(=O)[C@@H](N)Cc1ccc(O)cc1)C(=O)O [ENKEPHALIN]', 'Total Cell Count', 174),
  ('NC(=O)c1ccc2nc(-c3ccc(C4(N)CCC4)cc3)c(-c3ccccc3)n2n1 [BAY-1125976]', 'Total Cell Count', 258),
  ('CCCCCNC(=N)N/N=C/c1c[nH]c2ccc(OC)cc12.O=C(O)/C=C\C(=O)O [TEGASEROD MALEATE]', 'Total Cell Count', 180),
  ('CC(C)[C@H](CO)Nc1nc(Nc2cccc(Cl)c2)c2ncn(C(C)C)c2n1 [PURVALANOLA]', 'Total Cell Count', 133),
  ('N#Cc1cccc(C(=O)Nc2cc(-c3ccccc3)nn2-c2ccccc2)c1', 'Total Cell Count', 119),
  ('Cl.Cn1c2c(c3ccc(Cl)c(Cl)c31)C(C#N)C1(CCNCC1)NC2=O (stereo not drawn)', 'Total Cell Count', 231),
  ('Cc1ccc(S(=O)(=O)NC2c3ccccc3Oc3ccccc32)cc1', 'Total Cell Count', 321),
  ('CC[C@@H]1C(=O)N(C)c2cnc(Nc3ccc(C(=O)NC4CCN(C)CC4)cc3OC)nc2N1C1CCCC1 [BI-2536]', 'Total Cell Count', 180),
  ('Cc1c(P(=S)(c2ccccc2)c2ccccc2)n2ccccc2[n+]1C/C=C/c1ccccc1.[Br-]', 'Total Cell Count', 154),
  ('c1ccc(-c2oc3ncnc(NC[C@@H]4CCCO4)c3c2-c2ccccc2)cc1', 'Total Cell Count', 138);

###

tested on: U2OS; assay: Multiplex assay against U2OS; assay type: toxicity, cell-based; conditions: human, 48 h, 1 µM, compound concentration 1 uM, replicate 1
MEASURE NAME: Population Healthy Nuclei (%)

INSERT INTO measurements (compound, target_entity, measure_name, unit_abbrev, number) VALUES
  ('Cc1c(P(=S)(c2ccccc2)c2ccccc2)n2ccccc2[n+]1C/C=C/c1ccccc1.[Br-]', 'U2OS', 'Population Healthy Nuclei (%)', '%', 85),
  ('CCCCCNC(=N)N/N=C/c1c[nH]c2ccc(OC)cc12.O=C(O)/C=C\C(=O)O [TEGASEROD MALEATE]', 'U2OS', 'Population Healthy Nuclei (%)', '%', 85),
  ('N#Cc1cccc(C(=O)Nc2cc(-c3ccccc3)nn2-c2ccccc2)c1', 'U2OS', 'Population Healthy Nuclei (%)', '%', 82),
  ('CC(C)C[C@H](NC(=O)[C@H](Cc1ccccc1)NC(=O)CNC(=O)CNC(=O)[C@@H](N)Cc1ccc(O)cc1)C(=O)O [ENKEPHALIN]', 'U2OS', 'Population Healthy Nuclei (%)', '%', 87);

###

system: Fibroblast; assay: Multiplex assay against human fibroblast; type: toxicity, cell-based; details: 48 h, 10 µM, compound concentration 10 uM, replicate 1
MEASURE NAME: Population Membrane Permeable-Phenotype (%)

INSERT INTO results (compound, result) VALUES
  ('CN1C(=O)[C@@H](NC(=O)c2cc3ccccc3[nH]2)N=C(c2ccccc2)c2ccccc21 [DEVAZEPIDE]', '22%'),
  ('CN(c1cc(C(F)(F)F)nc(OCCC(=O)O)n1)c1cccc2c1CCC2', '14%'),
  ('N#Cc1cccc(C(=O)Nc2cc(-c3ccccc3)nn2-c2ccccc2)c1', '28%'),
  ('CCCCCNC(=N)N/N=C/c1c[nH]c2ccc(OC)cc12.O=C(O)/C=C\C(=O)O [TEGASEROD MALEATE]', '17%'),
  ('N#CCNC(=O)c1ccc(-c2ccnc(Nc3ccc(N4CCOCC4)cc3)n2)cc1', '25%'),
  ('CN1CCN(Cc2ccc(-c3cnc4[nH]cc(-c5ccc6[nH]ccc6c5)c4c3)cc2)CC1', '41%'),
  ('CCCCN(CC)c1nc(C)nc2c1c(C)cn2-c1c(C)cc(C)cc1C.Cl', '13%'),
  ('C[C@@H](Oc1cc(-n2cnc3ccc(CN4CCN(C)CC4)cc32)sc1C(N)=O)c1ccccc1C(F)(F)F', '22%'),
  ('CC(C)c1cc(Nc2nc(N3CCC[C@H](N)C3)ncc2C(N)=O)cc(C(C)C)n1', '66%');

###

tested on: HEK-293T; assay: Multiplex assay against HEK293T; format: toxicity, cell-based; details: human, 12 h, 1 µM, compound concentration 1 uM, replicate 1
MEASURE NAME: Total Cell Count

INSERT INTO measurements (structure_smiles, target_entity, number) VALUES
  ('Cc1ccc(NC(=O)Nc2cc(C(F)(F)F)ccc2F)cc1Nc1ccc2c(c1)NC(=O)/C2=C\c1ccc[nH]1', 'HEK-293T', 644),
  ('CCCc1cc(C)[nH]c(=O)c1CNC(=O)c1cc(-c2ccc(N3CCN(C(C)C)CC3)nc2)cc2c1cnn2C(C)C', 'HEK-293T', 193),
  ('C[C@@H](Oc1cc(-n2cnc3ccc(CN4CCN(C)CC4)cc32)sc1C(N)=O)c1ccccc1C(F)(F)F', 'HEK-293T', 322),
  ('CCCCN(CC)c1nc(C)nc2c1c(C)cn2-c1c(C)cc(C)cc1C.Cl', 'HEK-293T', 241),
  ('CCOC(=O)CCNc1cc(N2CCc3ccccc3CC2)nc(-c2ccccn2)n1', 'HEK-293T', 720),
  ('Cc1c(Nc2ccc(S(=O)(=O)N3CCN(C)CC3)cc2F)nc2ccc(-c3cnn(C4CC4)c3)cn2c1=O', 'HEK-293T', 755),
  ('CC(C)c1cc(Nc2nc(N3CCC[C@H](N)C3)ncc2C(N)=O)cc(C(C)C)n1', 'HEK-293T', 225),
  ('CC(/C=C1\SC(=S)N(CCCC(=O)Nc2ccc(C(=O)O)c(O)c2)C1=O)=C\c1ccccc1', 'HEK-293T', 251);
